Hi there, I'd appreciate the recorded MBC for every entry that follows.
Test system: S. aureus 29213
Experiment: MBC/MFC against S. aureus 29213
Type: cell-based
Conditions: Staphylococcus aureus, pH 4 acetate, Table 4
Give your result in µg/mL as a bare value.

Specify MBC for CC1(C)C(=O)N(CC(O)CO)C(C)(C)N1Cl (centres unmarked) , system S. aureus 29213.
4

Specify MBC for COCCOCCOCCOCCOCCOCCOCCOCCOCCOCCOCCOCCOCCOCCN1C(=O)C(C)(C)N(Cl)C1(C)C , system S. aureus 29213.
16

Specify MBC for COCCOCCOCCOCCOCCOCCOCCOCCOCCOCCOCCOCCOCCOCCOCCOCCOCCOCCOCCOCCOCCOCCOCCOCCOCCOCCOCCOCCOCCOCCOCCOCCOCCOCCOCCOCCOCCOCCOCCN1C(=O)C(C)(C)N(Cl)C1(C)C , system S. aureus 29213.
8

Specify MBC for CC1(C)C(CO)OC(=O)N1Cl (centres unmarked) , system S. aureus 29213.
4

Specify MBC for CN1CC(C)(CO)N(Cl)C1=O (centres unmarked) , system S. aureus 29213.
16

Specify MBC for CC1(C)CN(CCO)C(=O)C(C)(C)N1Cl , system S. aureus 29213.
2

Specify MBC for COCCOCCOCCCN1C(=O)C(C)(C)N(Cl)C1(C)C , system S. aureus 29213.
4

Specify MBC for COCCOCCOCCN1C(=O)C(C)(C)N(Cl)C1(C)C , system S. aureus 29213.
2

Specify MBC for COCCOCCOCCOCCN1C(=O)C(C)(C)N(Cl)C1(C)C , system S. aureus 29213.
8

Specify MBC for COCCOCCOCC[N+](C)(C)CCN1CC(C)(C)N(Cl)C1=O , system S. aureus 29213.
128

Specify MBC for CC1(C)C(=O)N(CCCCO)C(C)(C)N1Cl , system S. aureus 29213.
2

Specify MBC for COCCN1C(=O)C(C)(C)N(Cl)C1(C)C , system S. aureus 29213.
2

Specify MBC for COCCOCCN1C(=O)C(C)(C)N(Cl)C1(C)C , system S. aureus 29213.
8

Specify MBC for COCCOCCOCC[N+]1(C)CC(C)(C)N(Cl)C(C)(C)C1.[Cl-] , system S. aureus 29213.
32
